Where a name gives a salt, the structure may show the parent alone.
Here we list molecules with their recorded IC50 when tested on full-length USP7 (Homo sapiens (Human)).
Sequence (Q93009 whole entry): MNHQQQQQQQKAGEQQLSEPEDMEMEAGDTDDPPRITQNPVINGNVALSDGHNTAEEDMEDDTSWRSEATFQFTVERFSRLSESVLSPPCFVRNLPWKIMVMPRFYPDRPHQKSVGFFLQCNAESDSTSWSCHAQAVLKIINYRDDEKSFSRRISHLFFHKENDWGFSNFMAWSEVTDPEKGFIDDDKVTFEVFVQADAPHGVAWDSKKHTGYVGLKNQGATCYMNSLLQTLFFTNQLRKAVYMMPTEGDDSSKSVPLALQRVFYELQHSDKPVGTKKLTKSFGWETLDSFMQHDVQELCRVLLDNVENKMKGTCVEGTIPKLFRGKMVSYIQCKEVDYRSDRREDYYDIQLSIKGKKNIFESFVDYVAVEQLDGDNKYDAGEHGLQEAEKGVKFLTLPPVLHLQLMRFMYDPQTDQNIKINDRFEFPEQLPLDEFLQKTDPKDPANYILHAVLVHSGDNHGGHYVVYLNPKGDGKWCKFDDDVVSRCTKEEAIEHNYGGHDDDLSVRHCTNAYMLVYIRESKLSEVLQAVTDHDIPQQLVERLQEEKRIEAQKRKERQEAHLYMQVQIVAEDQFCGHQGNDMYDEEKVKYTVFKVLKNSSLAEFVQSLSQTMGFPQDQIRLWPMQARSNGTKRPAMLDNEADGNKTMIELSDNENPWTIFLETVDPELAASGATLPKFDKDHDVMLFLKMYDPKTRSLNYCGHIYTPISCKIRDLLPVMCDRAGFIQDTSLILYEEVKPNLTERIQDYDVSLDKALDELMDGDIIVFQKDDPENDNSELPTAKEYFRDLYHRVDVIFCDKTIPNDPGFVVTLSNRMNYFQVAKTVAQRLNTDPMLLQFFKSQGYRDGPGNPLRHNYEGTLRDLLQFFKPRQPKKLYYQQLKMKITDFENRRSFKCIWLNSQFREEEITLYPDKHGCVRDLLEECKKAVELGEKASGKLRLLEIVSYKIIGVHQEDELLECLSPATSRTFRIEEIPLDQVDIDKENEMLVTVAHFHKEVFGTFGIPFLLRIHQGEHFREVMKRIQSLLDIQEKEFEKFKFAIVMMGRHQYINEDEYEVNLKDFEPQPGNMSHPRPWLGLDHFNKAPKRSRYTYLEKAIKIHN

Below are worked cases with known answers.
Query string: Short answer please: IC50, full-length USP7 (Homo sapiens (Human)), entry CN[C@@H]1CN(C(=O)c2c(C)cc(C(F)(F)F)nc2-c2ccnc3cc(CN4C(=O)C5C(C4=O)C5(C)C)sc23)C[C@H]1C (stereo partly drawn) [Example 168, hydrochloride]
Result string: < 0.5 µM

Query string: Query the reported IC50 for full-length USP7 (Homo sapiens (Human)); item: Cc1cc(C(F)(F)F)nc(-c2ccnc3cc(CN4C(=O)C5C(C4=O)C5(C)C)sc23)c1C(=O)N1CCC(C)(N)C1 (racemic) [Example 137, trihydrochloride]
Result string: 0.5 to 1 µM

Query string: Query the reported IC50 for full-length USP7 (Homo sapiens (Human)); item: Cc1cc(C(F)(F)F)nc(-c2ccnc3cc(CN4C(=O)C5C(C4=O)C5(C)C)sc23)c1C(=O)N1CC[C@H](CF)C1 (stereo partly drawn) [Example 105, hydrochloride]
Result string: < 0.5 µM

Query string: Quick check: IC50 on full-length USP7 (Homo sapiens (Human)), item Cc1nc(C(F)(F)F)cc(-c2ccnc3cc(CN4C(=O)C5C(C4=O)C5(C)C)sc23)c1NC(=O)c1cccnc1 (stereo not drawn) [Example 63, 2,2,2-trifluoroacetate] ?
Result string: > 10 µM

Query string: Give recorded IC50 with full-length USP7 (Homo sapiens (Human)) for the following molecule: Cc1nc(C#N)cc(-c2ccnc3cc(CN4C(=O)C5C(C4=O)C5(C)C)sc23)c1C(=O)N1CCC(F)(F)C1 (stereo not drawn) [Example 10, 2,2,2-trifluoroacetate]
Result string: 1 to 10 µM

Continue with the next molecule.
Query string: Fill in the recorded IC50 for this molecule, with full-length USP7 (Homo sapiens (Human)) as test system: Cc1cc(C(F)(F)F)nc(-c2ccnc3cc(CN4C(=O)C5C(C4=O)C5(C)C)sc23)c1C(=O)N1CC[C@H](F)C1 (stereo partly drawn) [Example 114, hydrochloride]
Result string: < 0.5 µM
